Target: recombinant RORγ Ligand Binding Domain (LBD) protein (Homo sapiens (Human))
Sequence (P51449 269-508): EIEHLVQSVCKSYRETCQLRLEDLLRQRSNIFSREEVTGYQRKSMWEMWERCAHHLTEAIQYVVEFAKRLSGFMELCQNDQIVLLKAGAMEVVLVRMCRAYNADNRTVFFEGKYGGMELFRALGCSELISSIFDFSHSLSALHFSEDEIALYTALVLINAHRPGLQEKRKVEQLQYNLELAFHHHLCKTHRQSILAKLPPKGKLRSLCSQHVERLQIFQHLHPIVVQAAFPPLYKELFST
Assay: Radio-Ligand RORγ Binding Assay (Assay 1)
Conditions: competition with 25-hydroxy [26,27-3H]-cholesterol, SPA; Table 8; read-out: RORγ Binding Ki Range*
observed_property: Ki

Previously resolved entries follow.
Task item: Quick one: Ki of CCS(=O)(=O)c1ccc(CC(=O)Nc2nc3c(s2)CN(Cc2ccc(-c4nnn(C)n4)cc2)[C@H]3C(C)C)nc1 ?
Reply: < 100 nM

Task item: Quick one: Ki of Cc1cc(CN2Cc3sc(NC(=O)Cc4ccc(S(C)(=O)=O)cc4)nc3[C@@H]2C(C)C)ccc1C#N ?
Reply: < 100 nM

Task item: Quick one: Ki of CCS(=O)(=O)c1ccc(CC(=O)Nc2nc3c(s2)CN(Cc2cc(C)c(C#N)cn2)[C@H]3C(C)C)cc1 ?
Reply: < 100 nM

New cases:
Task item: Quick one: Ki of CCS(=O)(=O)c1ccc(CC(=O)Nc2nc3c(s2)CN(Cc2ncc(C#N)cc2F)[C@H]3C(C)C)cc1 ?
Reply: < 100 nM

Task item: Quick one: Ki of CCS(=O)(=O)c1ccc(CNC(=O)c2nc3c(s2)CN(Cc2ccc(Cl)cc2)[C@H]3C(C)C)cc1 ?
Reply: < 100 nM

Task item: Quick one: Ki of CC(C)[C@H]1c2nc(NS(=O)(=O)c3ccc(CC(=O)O)cc3)sc2CN1Cc1ccc(C#N)c(F)c1 [I-D2] ?
Reply: < 100 nM

Task item: Quick one: Ki of CCS(=O)(=O)c1ccc(CC(=O)Nc2nc3c(s2)CN(Cc2ccccc2)[C@H]3C(C)C)cc1 ?
Reply: < 100 nM

Measured values drawn from patent US9868748B2 for this set.
